- assay-comment: AUC(0 to t) in female Sprague-Dawley rat plasma at 10 mg/kg, po administered as single dose via gavage by LC-MS/MS analysis
- Format: ADME, organism-based
- Parameters: dose 10 mg/kg, dosed compound name [14C]lixivaptan, route oral
recorded-endpoint: AUC(0-t) (ng·h/mL)
Output spec: scalar in ng·h/mL, unitless text.

Query :: Field request: AUC(0-t) | item: Cc1ccc(F)cc1C(=O)Nc1ccc(C(=O)N2Cc3cccn3Cc3ccccc32)c(Cl)c1 [LIXIVAPTAN]
Result :: 1530

---

- Test system: Homo sapiens
- assay-comment: Drug level in human plasma treated with [14C]lixivaptan at 100 mg, po administered as single dose measured after 24 hrs by liquid scintillation counting
- Assay type: ADME, organism-based
- Design: dosed compound name [14C]lixivaptan
- reported-conditions: in vivo
Kindly supply the reported Compound recovery values for the records listed here.
Output spec: scalar in %, unitless text.

Query :: Field request: Compound recovery | item: `Cc1ccc(F)cc1C(=O)Nc1ccc(C(=O)Nc2ccccc2C(=O)O)c(Cl)c1`
Result :: 38.8

Query :: Field request: Compound recovery | item: `Cc1ccc(F)cc1C(=O)Nc1ccc(C(=O)N2C=C3CCC(=O)N3Cc3ccccc32)c(Cl)c1`
Result :: 2.1

Query :: Field request: Compound recovery | item: `Cc1ccc(F)cc1C(=O)Nc1ccc(C(=O)Nc2ccccc2Cn2cccc2C(=O)O)c(Cl)c1`
Result :: 11

Query :: Field request: Compound recovery | item: Cc1ccc(F)cc1C(=O)Nc1ccc(C(=O)N2Cc3cccn3C(O)c3ccccc32)c(Cl)c1 (centres undefined)
Result :: 4.2
